target: T1, M1; assay: scFv-phage ELISA
T1 construct: also called PD1 mutant M1
Measured OD490, listed per entry for reference.

| binder | OD490 |
| --- | --- |
| PD1-32A6 (antibody, V domains shown, scFv-phage in the screening ELISA; later whole IgG) VH: QVQLVQSGAEVKKPGSSVKVSCKASGDTFTRNAVSWVRQAPGEGLEWMADIIPIFGSANYAQKFQGRLTLTADVSTSTAYMELSSLRSEDTAVYYCARTIEGAFDIWGQGTMVTVSS VL: DIQMTQSPSSVSASVGDRVTITCRASQGIVSWLAWYQQKPGKAPRLLIYRASDLETGVPSRFSGSGSGTDFTLTISSLQPEDVATYYCQQADSFPLTFGGGTKVEIK | 2.4 |
| PD1-52E8 (antibody, V domains shown, scFv-phage in the screening ELISA; whole IgG in the other assays) VH: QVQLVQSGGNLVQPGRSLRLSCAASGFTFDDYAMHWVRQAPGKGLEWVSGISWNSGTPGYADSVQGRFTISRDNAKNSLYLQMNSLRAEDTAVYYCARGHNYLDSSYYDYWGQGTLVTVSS VL: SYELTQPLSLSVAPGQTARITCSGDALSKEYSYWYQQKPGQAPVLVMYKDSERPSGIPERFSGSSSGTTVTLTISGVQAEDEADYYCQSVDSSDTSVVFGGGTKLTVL | 1.4 |
| PD1-45F4 (antibody, V domains shown, scFv-phage in the screening ELISA; later whole IgG) VH: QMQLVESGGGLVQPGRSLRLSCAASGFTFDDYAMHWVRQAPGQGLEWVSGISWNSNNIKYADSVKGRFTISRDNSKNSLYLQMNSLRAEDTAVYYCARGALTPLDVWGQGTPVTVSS VL: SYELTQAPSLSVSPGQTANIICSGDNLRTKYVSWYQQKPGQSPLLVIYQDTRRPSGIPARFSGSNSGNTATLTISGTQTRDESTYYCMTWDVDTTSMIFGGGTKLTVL | 2.6 |
